# Test system: A498 renal
# EXPERIMENTAL PROTOCOL: NCI tumour cell line growth inhibition, 48 h
QUANTITY KIND: TGI

A selection of reference data follows.
Look up and report measured TGI for this entry: `CC(=O)c1ccc2c3c1[C@H]1O[C@H]1c1cccc(c1-3)[C@@H]1O[C@H]21`
7.36 µM

Look up and report measured TGI for this entry: `CN(C)c1cc2c(Nc3ccc4c(cnn4Cc4ccccc4)c3)ncnc2cn1`
> 25 µM

Look up and report measured TGI for this entry: `CSc1nnc(-c2cc3c([nH]c4ccccc43)c(-c3cccc(O)c3)n2)n1-c1ccc(C)cc1`
7.14 µM

Could you report TGI for every entry in the following list?
1. COC(=O)c1c2c(c(C)[n+]([O-])c1C)C(=O)C(NCc1ccc(F)cc1)=CC2=O
2. CC(C)(O)CCc1cccc(C(=O)c2cnn(-c3ccc(F)cc3)c2N)c1

1: 3.29 µM; 2: > 25 µM

====

# System: T-47D breast
# EXPERIMENTAL PROTOCOL: NCI tumour cell line growth inhibition, 48 h
Provide the reported TGI of each item.

A selection of reference data follows.
Specify TGI for `CCOC(=O)N/N=C(\CC)NO` , system T-47D breast.
> 100 µM

Specify TGI for CC(NP(=O)(c1ccccc1)c1ccccc1)c1ccccc1 (centres undefined) , system T-47D breast.
> 100 µM

Specify TGI for CCOC(=O)c1csc(C(CSCc2ccc(OC)cc2)N2C(=O)c3ccccc3C2=O)n1 (centres undefined) , system T-47D breast.
> 100 µM

Specify TGI for `COc1ccc2c(CCCc3ccc(Cl)cc3Cl)c3[n+](cc2c1OC)CCc1cc2c(cc1-3)OCO2` , system T-47D breast.
1.84 µM

Specify TGI for `COC(=O)[C@]12C3=C(O)C(=O)C[C@H]1OC[C@H]2C=CC3` , system T-47D breast.
> 100 µM

Could you report TGI for every entry in the following list?
1. CC1=CC(C)(C)Nc2ccc(Cc3ccc4c(c3)C(C)=CC(C)(C)N4)cc21
2. Cc1cc(N(CCC#N)CCC#N)ccc1/C=C(\NC(=O)/C=C/c1ccccc1)C(=O)Nc1ccc(Cl)cc1
3. COCCNCc1ccc(-c2cc3nccc(Oc4ccc(NC(=O)C5(C(=O)Nc6ccc(F)cc6)CC5)cc4F)c3s2)nc1
4. Cc1ccc(-c2c3c(nn2-c2ccc(S(=O)(=O)NC(=O)NC4CCCCC4)cc2)-c2ccccc2C3)cc1

["35.2 µM", "> 100 µM", "6.29 µM", "> 100 µM"]

====

# Test system: UACC-62 melanoma
# EXPERIMENTAL PROTOCOL: NCI tumour cell line growth inhibition, 48 h; in the data active = GI50 below about 0.43 µM; inactive = the rest
The reply should be one of these categories: active, inactive

Give the logged outcome of this assay for the following molecule: `C[C@@H](CS[As](C)C)C(=O)N1CCC[C@H]1C(=O)O`
active

Give the logged outcome of this assay for the following molecule: `C[C@H]1COCCN1c1nc(-c2cnc(N)cc2C(F)F)nc(N2CCOCC2)n1`
active

Give the logged outcome of this assay for the following molecule: `COc1cc2c(NC3CCN(C(C)C)CC3)nc(C3CCCCC3)nc2cc1OCCCN1CCCC1`
inactive

---
Give the logged outcome of this assay for the following molecule: C[C@@]1(C(=O)O)CCC[C@]2(C)C1CC[C@]13C[C@@](O)(CO)[C@](O)(CC[C@]12O)C3 (stereo partly drawn)
inactive

Give the logged outcome of this assay for the following molecule: `CC(C)c1[nH]nc2c(NCc3ccc(-c4ccccn4)cc3)nc(SCCN)nc12`
active

Give the logged outcome of this assay for the following molecule: `Cc1ccc(N=Nc2c(O)ccc3n[nH]nc23)cc1`
inactive

Give the logged outcome of this assay for the following molecule: `CCC[CH2][Sn]([CH2]CCC)([O]C(=O)c1cc(F)ccc1F)[O]C(=O)c1cc(F)ccc1F`
inactive

Give the logged outcome of this assay for the following molecule: Cc1nc2sc(C(=O)Nc3ccccc3)c(N)c2cc1C(O)c1ccccc1 (stereo not drawn)
active

Give the logged outcome of this assay for the following molecule: `COCCNCc1ccc(-c2cc3nccc(Oc4ccc(NC(=O)C5(C(=O)Nc6ccc(F)cc6)CC5)cc4F)c3s2)nc1`
inactive

Give the logged outcome of this assay for the following molecule: `COc1ccc(/C=C2\COc3ccc(O)c(O)c3C2=O)cc1OC`
inactive

Give the logged outcome of this assay for the following molecule: `C(=C\c1ccncc1)/c1ccncc1`
inactive

Give the logged outcome of this assay for the following molecule: `[Cl][Hg][c]1ccc2ccccc2c1`
inactive

Give the logged outcome of this assay for the following molecule: `CSc1nnc(-c2cc3c([nH]c4ccccc43)c(-c3cccc(O)c3)n2)n1-c1ccc(C)cc1`
inactive

Give the logged outcome of this assay for the following molecule: `CC(C)c1[nH]nc2c(NCc3ccc(-c4ccccn4)cc3)nc(SCCN(C)C)nc12`
active

Give the logged outcome of this assay for the following molecule: `Cc1cc(Cl)nc(N(CCCNc2ccnc3cc(Cl)ccc23)Cc2cccs2)n1`
inactive

====

Provide the reported TGI of each item.
# Tested on: RPMI-8226 leukemia
# EXPERIMENTAL PROTOCOL: NCI tumour cell line growth inhibition, 48 h

Look up and report measured TGI for this entry: CN(C(=S)Cc1ccc(Cl)c(Cl)c1)C1CCCC[C@@H]1N1CCCC1 (stereo not given in full)
> 100 µM

Look up and report measured TGI for this entry: CC1CC(=NC2CCCCC2)Nc2ccccc2N1Cc1ccccc1 (stereo not given)
> 32.7 µM

Look up and report measured TGI for this entry: `O=C(CSC(c1ccccc1)c1ccccc1)N/N=C/c1ccccc1Cl`
> 40.6 µM

Look up and report measured TGI for this entry: `COc1ccc(-c2c(-c3ccccc3)c(C)nc3[nH]c(=S)[nH]c(=S)c23)cc1OC`
> 100 µM

Look up and report measured TGI for this entry: `O=c1[nH]nc(-c2ccccc2)n1-c1cccc([N+](=O)[O-])c1`
> 100 µM

Look up and report measured TGI for this entry: CN(C)CC1C(=O)O[C@H]2[C@H]1CC/C(COC(=O)NCc1ccc(Cn3c(=O)sn(CCCI)c3=O)cc1)=C\CC[C@@]1(C)O[C@@H]21 (stereo not given in full)
6.88 µM

Look up and report measured TGI for this entry: `O=C1C(c2c(O)[nH]c3ccc(Cl)cc23)=Nc2ccccc21`
> 100 µM

Look up and report measured TGI for this entry: `O=C(Cn1c(C(=O)/C=C/c2ccc(Cl)cc2)nc2ccccc21)c1ccc(Cl)cc1`
49.7 µM

Look up and report measured TGI for this entry: COc1ccc2nc3n(c2c1)C(c1c(F)cccc1F)SC3 (stereo not given)
> 100 µM

Next item in the queue.
Look up and report measured TGI for this entry: `[Cl][Hg][c]1ccc2ccccc2c1`
10.1 µM

====

# Tested on: M14 melanoma
# EXPERIMENTAL PROTOCOL: NCI tumour cell line growth inhibition, 48 h; in the data active means GI50 below about 0.43 µM; inactive means the rest
The reply should be one of these categories: Y = active, N = inactive

Give the logged outcome of this assay for the following compound: CCC[n+]1cc2cc3c(cc2c2c1-c1cc4c(cc1C2)OCO4)OCO3 (tested in a mixture with another compound)
N

---
Give the logged outcome of this assay for the following compound: `CC(=O)O[C@@H]1C2=C(C)C3(CC3)[C@@](C)(O)C(=O)C2=C[C@@]1(C)CO`
Y

Give the logged outcome of this assay for the following compound: `CC(C)(O)CCc1cccc(C(=O)c2cnn(-c3ccc(F)cc3)c2N)c1`
N

Give the logged outcome of this assay for the following compound: `CCN(CC)S(=O)(=O)c1cccc(-c2ccc3c(NC(=O)C4CC4)n[nH]c3c2)c1`
N

Give the logged outcome of this assay for the following compound: `CC1=CC(C)(C)Nc2ccc(Cc3ccc4c(c3)C(C)=CC(C)(C)N4)cc21`
N

Give the logged outcome of this assay for the following compound: `c1cc(C2CCCCC2)ccc1-c1cnc2nonc2n1`
N

Give the logged outcome of this assay for the following compound: CC(=O)[CH-]C(=O)c1ccccc1.CC(=O)[CH-]C(=O)c1ccccc1.CC[C@H](/C=C/C(C)[C@H]1CCC2[C@@H]3CC=C4C[C@@H]([O-])CC[C@]4(C)C3CC[C@@]21C)C(C)C.CC[C@H](/C=C/C(C)[C@H]1CCC2[C@@H]3CC=C4C[C@@H]([O-])CC[C@]4(C)C3CC[C@@]21C)C(C)C.Cl.[Ti+4] (stereo partly drawn)
N

Give the logged outcome of this assay for the following compound: `C=C1C(=O)O[C@H]2[C@H]1CC/C(COC(=O)CCCCCCCC(=O)OC/C1=C/CC[C@@]3(C)O[C@H]3[C@H]3OC(=O)C(=C)[C@@H]3CC1)=C\CC[C@@]1(C)O[C@@H]21`
N

====

Provide the reported TGI of each item.
# Tested on: RPMI-8226 leukemia
# EXPERIMENTAL PROTOCOL: NCI tumour cell line growth inhibition, 48 h

A selection of reference data follows.
Look up and report measured TGI for this entry: COC1(OC)N=C(N)C2(C#N)C(C)=C3NCN(C)N=C3C12C#N (stereo not given)
> 100 µM

Look up and report measured TGI for this entry: `CN(C)c1cc2c(Nc3ccc4c(cnn4Cc4ccccc4)c3)ncnc2cn1`
> 25 µM

Look up and report measured TGI for this entry: `CSc1ccc(NC(=O)Nc2cc(C)ccn2)cc1`
> 100 µM

Look up and report measured TGI for this entry: COc1ccc(/C=C2\CCC(C)c3c2nc(N)c(C#N)c3-c2ccc(OC)c(OC)c2)cc1OC (stereo not given)
> 100 µM

Look up and report measured TGI for this entry: C=CCC(N[C@H](CO)c1ccccc1)c1ccccn1 (stereo not given in full)
> 100 µM

Look up and report measured TGI for this entry: `Cc1cc(Cl)nc(N(CCCNc2ccnc3cc(Cl)ccc23)Cc2cccs2)n1`
3.84 µM

Could you report TGI for every entry in the following list?
1. COc1ccc(/C=N/N=C(\N)NO)cc1F
2. CN(CCCN1C(=O)c2cccc3cc([N+](=O)[O-])cc(c23)C1=O)CCN(C)CCCN1C(=O)c2cccc3cc([N+](=O)[O-])cc(c23)C1=O
3. O=C1C(Cl)=C(Cl)C(=O)N1c1cccc(C(F)(F)F)c1
4. O=C1NC2(CCCCC2)C2CCCCC=C12 (stereo not given)

1: > 100 µM; 2: > 39.3 µM; 3: > 100 µM; 4: > 100 µM
